Data provenance is ChEMBL document CHEMBL1157938.

Recorded GI50 at 48 h, one value per entry.
procedure text: Cytotoxicity against human MRC5 cells after 48 hrs by WST8 assay
Assay type: cell-based
Write it as a number; the unit µM goes unstated.

Worked set:
# compound, unit spec, GI50 at 48 h
data = [
    ("C/C=C(/C)C(=O)O[C@H]1[C@H](O)[C@]2(CO)[C@H](O)C[C@]3(C)C(=CC[C@@H]4[C@@]5(C)CC[C@H](O[C@@H]6O[C@H](C(=O)O)[C@@H](O)[C@H](O[C@@H]7O[C@@H](CO)[C@H](O)[C@H]7O)[C@H]6O[C@@H]6O[C@H](CO)[C@H](O)[C@H](O)[C@H]6O)C(C)(C)[C@@H]5CC[C@]43C)[C@@H]2CC1(C)C [AESCULIOSIDE IIC]", "µM", 11.2),
    ("C/C=C(/C)C(=O)O[C@H]1[C@H](OC(=O)C(C)CC)[C@]2(CO)[C@H](O)[C@H](O)[C@]3(C)C(=CC[C@@H]4[C@@]5(C)CC[C@H](O)C(C)(C)[C@@H]5CC[C@]43C)[C@@H]2CC1(C)C (some centres undefined)", "µM", 6.53),
    ("C/C=C(/C)C(=O)O[C@H]1[C@H](OC(C)=O)[C@]2(CO)[C@H](O)C[C@]3(C)C(=CC[C@@H]4[C@@]5(C)CC[C@H](O[C@@H]6O[C@H](C(=O)O)[C@@H](O)[C@H](O[C@@H]7O[C@@H](CO)[C@H](O)[C@H]7O)[C@H]6O[C@@H]6O[C@H](CO)[C@H](O)[C@H](O)[C@H]6O)C(C)(C)[C@@H]5CC[C@]43C)[C@@H]2CC1(C)C [AESCULIOSIDE IIK]", "µM", 9.89),
]

Please examine the following record next.
## Task # get_value(readout='GI50 at 48 h', item= "C/C=C(/C)C(=O)O[C@H]1[C@H](OC(=O)/C(C)=C\C)[C@]2(CO)[C@H](O)C[C@]3(C)C(=CC[C@@H]4[C@@]5(C)CC[C@H](O)[C@](C)(CO)[C@@H]5CC[C@]43C)[C@@H]2CC1(C)C" )
## Result 1.65

----------
target or system: DNA topoisomerase 1 (Homo sapiens) (UniProt P11387)
procedure text: Inhibition of human DNA topoisomerase 1-mediated relaxation of supercoiled DNA at 312 uM
Calls of active or inactive are those of the source. The rule behind the calls is not given here.

# compound, inhibition
measured = [
    ("C/C=C(/C)C(=O)O[C@H]1[C@H](O)[C@]2(CO)[C@H](O)[C@H](O)[C@]3(C)C(=CC[C@@H]4[C@@]5(C)CC[C@H](O[C@@H]6O[C@H](C(=O)O)[C@@H](O)[C@H](O[C@@H]7O[C@@H](CO)[C@H](O)[C@H]7O)[C@H]6O[C@@H]6O[C@H](CO)[C@H](O)[C@H](O)[C@H]6O)C(C)(C)[C@@H]5CC[C@]43C)[C@@H]2CC1(C)C [AESCULIOSIDE IIA]", "inactive"),
    ("C/C=C(/C)C(=O)O[C@H]1[C@H](O)[C@]2(CO)[C@H](O)[C@H](O)[C@]3(C)C(=CC[C@@H]4[C@@]5(C)CC[C@H](O[C@@H]6O[C@H](C(=O)O)[C@@H](O)[C@H](O[C@@H]7OC[C@@H](O)[C@H](O)[C@H]7O)[C@H]6O[C@@H]6O[C@H](CO)[C@@H](O)[C@H](O)[C@H]6O)C(C)(C)[C@@H]5CC[C@]43C)[C@@H]2CC1(C)C [ERYNGIOSIDE 94A]", "inactive"),
]

----------
System: HL-60
procedure text: Cytotoxicity against human HL60 cells after 48 hrs by WST8 assay
Format: functional
study conditions: HL-60, 48 h
endpoint name: GI50
Answer by giving the amount and then stating its unit.

## Task Look up GI50: C/C=C(/C)C(=O)O[C@H]1[C@H](OC(=O)C(C)CC)[C@]2(CO)[C@H](O)[C@H](O)[C@]3(C)C(=CC[C@@H]4[C@@]5(C)CC[C@H](O)C(C)(C)[C@@H]5CC[C@]43C)[C@@H]2CC1(C)C (some centres undefined)
## Result 4.21 µM

## Task Can you share its GI50? I mean this compound: C/C=C(\C)C(=O)O[C@H]1[C@H](OC(=O)C(C)CC)[C@]2(CO)[C@H](O)[C@H](O)[C@]3(C)C(=CC[C@@H]4[C@@]5(C)CC[C@H](O[C@@H]6O[C@H](C(=O)O)[C@@H](O)[C@H](O[C@@H]7O[C@@H](CO)[C@H](O)[C@H]7O)[C@H]6O[C@@H]6O[C@H](CO)[C@H](O)[C@H](O)[C@H]6O)C(C)(C)[C@@H]5CC[C@]43C)[C@@H]2CC1(C)C (some centres undefined) [AESCULIOSIDE IIIC]
## Result 13.6 µM

## Task Which GI50 value belongs to C/C=C(\C)C(=O)O[C@H]1[C@H](OC(=O)/C(C)=C/C)[C@]2(CO)[C@H](O)[C@H](O)[C@]3(C)C(=CC[C@@H]4[C@@]5(C)CC[C@H](O[C@@H]6O[C@H](C(=O)O)[C@@H](O)[C@H](O[C@@H]7O[C@@H](CO)[C@H](O)[C@H]7O)[C@H]6O[C@@H]6O[C@H](CO)[C@@H](O)[C@H](O)[C@H]6O)[C@](C)(CO)[C@@H]5CC[C@]43C)[C@@H]2CC1(C)C [AESCULIOSIDE IIID] ?
## Result 15.2 µM

## Task Can you share its GI50? I mean this compound: C/C=C(\C)C(=O)O[C@H]1[C@H](OC(=O)/C(C)=C/C)[C@]2(CO)[C@H](O)[C@H](O)[C@]3(C)C(=CC[C@@H]4[C@@]5(C)CC[C@H](O[C@@H]6O[C@H](C(=O)O)[C@@H](O)[C@H](O[C@@H]7O[C@@H](CO)[C@H](O)[C@H]7O)[C@H]6O[C@@H]6O[C@H](CO)[C@@H](O)[C@H](O)[C@H]6O)C(C)(C)[C@@H]5CC[C@]43C)[C@@H]2CC1(C)C [AESCULIOSIDE IIIF]
## Result 14.2 µM

----------
procedure text: Cytotoxicity against human MRC5 cells after 48 hrs by WST8 assay
Type: cell-based
endpoint name: GI50 at 48 h (µM)
Give a bare numeral; the unit µM is implied.

# compound, number
measured = [
    ("C/C=C(/C)C(=O)O[C@H]1[C@H](OC(C)=O)[C@]2(CO)[C@H](O)C[C@]3(C)C(=CC[C@@H]4[C@@]5(C)CC[C@H](O[C@@H]6O[C@H](C(=O)O)[C@@H](O)[C@H](O[C@@H]7OC[C@H](O)[C@H](O)[C@H]7O)[C@H]6O[C@@H]6O[C@H](CO)[C@@H](O)[C@H](O)[C@H]6O)C(C)(C)[C@@H]5CC[C@]43C)[C@@H]2CC1(C)C [ERYNGIIOSIDE L]", 8.71),
]

## Task Requested field: GI50 at 48 h. Item: C/C=C(/C)C(=O)O[C@H]1[C@H](OC(=O)C(C)CC)[C@]2(CO)[C@H](O)C[C@]3(C)C(=CC[C@@H]4[C@@]5(C)CC[C@H](O[C@@H]6O[C@H](C(=O)O)[C@@H](O)[C@H](O[C@@H]7O[C@@H](CO)[C@H](O)[C@H]7O)[C@H]6O[C@@H]6O[C@H](CO)[C@H](O)[C@H](O)[C@H]6O)C(C)(C)[C@@H]5CC[C@]43C)[C@@H]2CC1(C)C (stereo partly drawn) [AESCULIOSIDE IVC]
## Result 4.34

## Task So what does the record say about GI50 at 48 h for C/C=C(/C)C(=O)O[C@H]1[C@H](O)[C@]2(CO)[C@H](O)[C@H](O)[C@]3(C)C(=CC[C@@H]4[C@@]5(C)CC[C@H](O[C@@H]6O[C@H](C(=O)O)[C@@H](O)[C@H](O[C@@H]7OC[C@@H](O)[C@H](O)[C@H]7O)[C@H]6O[C@@H]6O[C@H](CO)[C@@H](O)[C@H](O)[C@H]6O)C(C)(C)[C@@H]5CC[C@]43C)[C@@H]2CC1(C)C [ERYNGIOSIDE 94A] ?
## Result 8.51

----------
target or system: DNA topoisomerase 1 (Homo sapiens, UniProt P11387)
Sequence (P11387 whole entry): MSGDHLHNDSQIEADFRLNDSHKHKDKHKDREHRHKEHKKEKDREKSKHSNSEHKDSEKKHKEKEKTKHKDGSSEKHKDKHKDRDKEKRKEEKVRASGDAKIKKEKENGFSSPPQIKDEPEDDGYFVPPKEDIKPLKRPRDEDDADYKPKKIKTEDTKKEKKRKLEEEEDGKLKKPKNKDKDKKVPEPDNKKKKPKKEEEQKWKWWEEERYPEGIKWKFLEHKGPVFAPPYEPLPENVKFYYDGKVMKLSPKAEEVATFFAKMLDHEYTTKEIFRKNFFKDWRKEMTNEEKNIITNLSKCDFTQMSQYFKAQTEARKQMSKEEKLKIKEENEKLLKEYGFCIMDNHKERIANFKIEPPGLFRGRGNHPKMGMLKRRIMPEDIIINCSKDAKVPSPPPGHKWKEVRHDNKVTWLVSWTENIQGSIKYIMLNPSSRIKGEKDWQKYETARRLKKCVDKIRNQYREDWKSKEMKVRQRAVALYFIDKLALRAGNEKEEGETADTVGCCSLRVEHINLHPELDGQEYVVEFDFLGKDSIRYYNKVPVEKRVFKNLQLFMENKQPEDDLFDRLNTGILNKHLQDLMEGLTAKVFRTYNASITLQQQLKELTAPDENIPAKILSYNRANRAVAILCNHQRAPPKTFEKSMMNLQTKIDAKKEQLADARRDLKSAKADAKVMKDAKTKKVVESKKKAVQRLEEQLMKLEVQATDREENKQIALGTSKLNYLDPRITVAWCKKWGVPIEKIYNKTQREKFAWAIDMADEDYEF
procedure text: Inhibition of human DNA topoisomerase 1-mediated relaxation of supercoiled DNA by gel electrophoresis
endpoint name: IC50 (µM)
Number in µM, nothing else.

Examples with their reported IC50 follow.
# compound, number
rows = [
    ("C/C=C(\\C)C(=O)O[C@H]1[C@H](OC(=O)/C(C)=C/C)[C@]2(CO)[C@H](O)[C@H](O)[C@]3(C)C(=CC[C@@H]4[C@@]5(C)CC[C@H](O[C@@H]6O[C@H](C(=O)O)[C@@H](O)[C@H](O[C@@H]7O[C@@H](CO)[C@H](O)[C@H]7O)[C@H]6O[C@@H]6O[C@H](CO)[C@@H](O)[C@H](O)[C@H]6O)C(C)(C)[C@@H]5CC[C@]43C)[C@@H]2CC1(C)C [AESCULIOSIDE IIIF]", 53.7),
    ("C/C=C(/C)C(=O)O[C@H]1[C@H](OC(=O)/C(C)=C\\C)[C@]2(CO)[C@H](O)C[C@]3(C)C(=CC[C@@H]4[C@@]5(C)CC[C@H](O[C@@H]6O[C@H](C(=O)O)[C@@H](O)[C@H](O[C@@H]7O[C@@H](CO)[C@H](O)[C@H]7O)[C@H]6O[C@@H]6O[C@H](CO)[C@@H](O)[C@H](O)[C@H]6O)[C@](C)(CO)[C@@H]5CC[C@]43C)[C@@H]2CC1(C)C", 53),
]

Read the next record carefully.
## Task Look up IC50 for this compound: C/C=C(/C)C(=O)O[C@H]1[C@H](O)[C@]2(COC(C)=O)[C@H](O)C[C@]3(C)C(=CC[C@@H]4[C@@]5(C)CC[C@H](O[C@@H]6O[C@H](C(=O)O)[C@@H](O)[C@H](O[C@@H]7O[C@@H](CO)[C@H](O)[C@H]7O)[C@H]6O[C@@H]6O[C@H](CO)[C@@H](O)[C@H](O)[C@H]6O)[C@](C)(CO)[C@@H]5CC[C@]43C)[C@@H]2CC1(C)C [AESCULIOSIDE IIIA]
## Result 119
